Literature IC50 values, system: UniProtKB P52333.

Illustrative cases are given below, each with its answer.
>>> print(df.to_string())
                                   compound  measure        obsvalue
0  O=c1[nH]c2c(N3CCC3)nc(-n3cnc4ccc(F)cc43)nc2n1[C@@H]1CCOc2c(F)cccc21     IC50        < 100 nM
1  Cc1cnc(-c2cnc3[nH]ccc3c2N[C@@H]2CCCN(C(=O)CC#N)C2)o1     IC50         ≤ 10 nM
2  C=CC(=O)Nc1ccc(CNc2nc(Nc3ccc(N4CCN(C)CC4)cc3OC)ncc2Br)cc1     IC50         33.2 nM
3  Cn1cc(-c2cc3nccn3c(-c3cnn(C(CC#N)c4cccnc4)c3)n2)cn1 (centres unmarked)     IC50  100 to 1000 nM

Please find the next compound below.
// IC50 lookup, compound = `CC(C)(C)NS(=O)(=O)c1cccc(N2CCc3cnc(Nc4ccc(CN5CCCC5)cc4)nc32)c1` , result: 873 nM
